# measured_on: HsAPT2 (Homo sapiens, UniProt O95372)
# Sequence (O95372 whole entry): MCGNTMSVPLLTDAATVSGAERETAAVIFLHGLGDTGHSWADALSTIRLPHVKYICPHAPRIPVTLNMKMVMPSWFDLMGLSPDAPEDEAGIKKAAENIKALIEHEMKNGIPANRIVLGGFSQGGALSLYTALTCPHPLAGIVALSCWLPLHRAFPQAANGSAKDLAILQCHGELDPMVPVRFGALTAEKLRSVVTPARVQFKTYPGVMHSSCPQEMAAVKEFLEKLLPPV
# protocol_details: 4-NPO esterase activity assay, recombinant HsAPT2
# Format: biochemical
# Design: made in house; host or cells: E. coli BL21(DE3)pLysS
# assay_context: preincubation time 2 hr
pIC50: −log10 of the molar value.
assay_metric: pIC50

# compound, measured_on, measurement
measured = [
    ("CCCCCCCCCC[C@@H]1C(=O)O[C@H]1CCc1ccc(OC)c(OC)c1 [Palmostatin B, palmostatin B, reference compound]", "HsAPT2 (Homo sapiens, UniProt O95372)", 6.15),
]

----------
# measured_on: HsAPT1 (Homo sapiens, UniProt O75608)
# Sequence (O75608 whole entry): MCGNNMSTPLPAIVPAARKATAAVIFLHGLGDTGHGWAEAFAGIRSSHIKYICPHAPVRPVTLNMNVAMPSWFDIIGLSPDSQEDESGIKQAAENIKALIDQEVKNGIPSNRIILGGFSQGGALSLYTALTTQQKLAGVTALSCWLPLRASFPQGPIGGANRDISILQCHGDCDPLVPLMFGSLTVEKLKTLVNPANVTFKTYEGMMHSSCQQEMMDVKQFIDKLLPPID
# protocol_details: 4-NPO esterase activity assay, recombinant HsAPT1
# Type: biochemical
# Parameters: made in house; host or cells: E. coli BL21(DE3)pLysS
# assay_context: preincubation time 6 hr
# Excerpt: We recently performed a phenotypic screen to identify small-molecule modulators of host cell invasion by the apicomplexan parasite T. gondii. […] To measure the enzymatic activity of recombinant HsAPT1 and HsAPT2, we used the previously reported substrate, 4-nitrophenyl octanoate (4-NPO), in which enzymatic cleavage of the ester linkage can be measured by UV/Vis spectroscopy upon release of 4-nitrophenolate (Fig 1A). […]
pIC50: −log10 of the molar value.

# compound, pIC50
records = [
    ("CCCCCCCCCC[C@@H]1C(=O)O[C@H]1CCc1ccc(OC)c(OC)c1 [Palmostatin B, palmostatin B, reference compound]", 5.17),
]

----------
# measured_on: HsAPT1 (Homo sapiens)
# protocol_details: 4-NPO esterase activity assay, recombinant HsAPT1
# Type: biochemical
# Parameters: made in house; host or cells: E. coli BL21(DE3)pLysS
# assay_context: rHsAPT1, 4-NPO substrate, 30 minutes preincubation at 37°C

# compound, IC50 [nM]
measured = [
    ("CCCCCCCCCC[C@@H]1C(=O)O[C@H]1CCc1ccc(OC)c(OC)c1 [Palmostatin B, palmostatin B, reference compound]", 310),
    ("CC(CBr)Oc1oc(=O)c2cc(N)ccc2c1Cl (centres unmarked) [JCP362]", 1200),
    ("O=C(O)c1cccc(NC(=S)Nc2ccc3c(Cl)c(OCCBr)oc(=O)c3c2)c1 [JCP342]", 1500),
    ("O=c1oc(OCCBr)c(Cl)c2ccc(NC(=S)Nc3ccccc3)cc12 [JCP343]", 1400),
    ("COc1ccc(-c2ccc3n2[B-](F)(F)[N+]2=C(C)C(CCC(=O)NCCCn4cc(CCOc5oc(=O)c6cc(N)ccc6c5Cl)nn4)=C(C)C2=C3)cc1 [JCP174-BODIPY TMR]", 3000),
    ("CCOc1oc(=O)c2cc(NC(=S)Nc3ccccc3)ccc2c1Cl [JCP154]", 1800),
    ("O=c1oc(Cl)c(Cl)c2ccccc12 [DCI, dichloroisocoumarin, reference compound]", 1700),
    ("O=C(O)c1ccc(NC(=S)Nc2ccc3c(Cl)c(OCCBr)oc(=O)c3c2)cc1 [JCP345]", 7100),
]
